Each recorded value in this set is attributed to patent US9108921B2.

# system_under_test: PKR R532W (Homo sapiens, UniProt P30613, R532W)
# Sequence (P30613 whole entry R532W): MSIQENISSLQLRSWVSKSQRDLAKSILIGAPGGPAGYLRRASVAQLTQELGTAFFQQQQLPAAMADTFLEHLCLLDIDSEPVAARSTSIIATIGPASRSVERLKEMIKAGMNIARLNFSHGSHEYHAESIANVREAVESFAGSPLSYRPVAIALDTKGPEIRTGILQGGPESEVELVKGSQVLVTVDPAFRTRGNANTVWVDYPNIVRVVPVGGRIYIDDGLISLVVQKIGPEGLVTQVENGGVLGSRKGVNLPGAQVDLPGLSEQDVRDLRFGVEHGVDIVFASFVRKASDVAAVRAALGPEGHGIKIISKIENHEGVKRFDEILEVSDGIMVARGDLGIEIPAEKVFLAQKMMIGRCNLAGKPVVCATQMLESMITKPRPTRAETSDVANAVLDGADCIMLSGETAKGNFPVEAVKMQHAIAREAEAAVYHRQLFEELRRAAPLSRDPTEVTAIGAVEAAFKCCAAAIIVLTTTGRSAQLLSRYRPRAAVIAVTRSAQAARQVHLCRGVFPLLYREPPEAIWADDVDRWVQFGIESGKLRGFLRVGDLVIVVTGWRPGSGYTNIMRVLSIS
# measurement_protocol: PKR Mutant Assay, AC50 against PKR R532W
# Format: biochemical
# condition: mutant PKR R532W enzyme
Catalogue of AC50 values

Some solved entries appear below for comparison.
O=C(c1ccc(NS(=O)(=O)c2ccc(F)c3cccnc23)cc1)N1CCC(O)(Cc2ccccc2C(F)(F)F)CC1 [Compound 208]	< 0.1 µM
CC(C)CC1(O)CCN(C(=O)c2ccc(NS(=O)(=O)c3ccc(O)c4nccnc34)cc2)CC1 [Compound 289]	0.101 to 1 µM
CN1C(=O)C=C2C=C(S(=O)(=O)Nc3ccc(C(=O)N4CCC(O)(Cc5ccccc5)CC4)cc3)C=CC21 (stereo not shown) [Compound 268]	0.101 to 1 µM
O=C(c1ccc(NS(=O)(=O)c2cccc3nccnc23)cc1)N1CCC(O)(CCC(F)F)CC1 [Compound 230]	0.101 to 1 µM
CC(C)CC1(O)CCN(C(=O)c2ccc(NS(=O)(=O)c3cccc4c3OCO4)cc2)CC1 [Compound 423]	< 0.1 µM

// query AC50 value for entry CC(C)CC1(O)CCN(C(=O)c2ccc(NS(=O)(=O)c3cc(F)cc4scnc34)cc2)CC1 [Compound 202] < 0.1 µM

// query AC50 value for entry CC(F)(F)CCC1(O)CCN(C(=O)c2ccc(NS(=O)(=O)c3cccc4scnc34)cc2)CC1 [Compound 440] 0.101 to 1 µM

// query AC50 value for entry N#Cc1cccc(C2(O)CCN(C(=O)c3ccc(NS(=O)(=O)c4cccc5cccnc45)cc3)CC2)c1 [Compound 278] 0.101 to 1 µM

// query AC50 value for entry O=C(c1ccc(NS(=O)(=O)c2cccc3cccnc23)cc1)N1CCC(O)(Cc2cccnc2)CC1 [Compound 185] < 0.1 µM

// query AC50 value for entry Nc1nc2c(S(=O)(=O)Nc3ccc(C(=O)N4CCC(O)(CCC(F)(F)F)CC4)cc3)cccc2s1 [Compound 430] < 0.1 µM

###

Catalogue of AC50 values
# system_under_test: PKR R532W (Homo sapiens, UniProt P30613, R532W)
# measurement_protocol: PKR Mutant Assay, AC50 against PKR R532W
# Type: biochemical
# condition: mutant PKR R532W enzyme

Some solved entries appear below for comparison.
O=C(c1ccc(NS(=O)(=O)c2cccc3cc(F)cnc23)cc1)N1CCC(O)(c2ccccc2)CC1	< 100 nM
CC(C)CC1(O)CCN(C(=O)c2ccc(NS(=O)(=O)c3cccn4ccnc34)cc2)CC1	1010 to 10000 nM
COc1cccnc1C1(O)CCN(C(=O)c2ccc(NS(=O)(=O)c3cccc4cccnc34)cc2)CC1	101 to 1000 nM
Cc1cc(C(=O)N2CCC(O)(c3cccc(F)c3F)CC2)ccc1NS(=O)(=O)c1cccc2nccnc12	< 100 nM
CS(=O)(=O)c1ccccc1C1(O)CCN(C(=O)c2ccc(NS(=O)(=O)c3cccc4cccnc34)cc2)CC1	< 100 nM
O=C(c1ccc(NS(=O)(=O)c2cccc3cccnc23)cc1)N1CCC(O)(c2ncccc2F)CC1	< 100 nM
CC(C)CCC1(O)CCN(C(=O)c2ccc(NS(=O)(=O)c3cccc4scnc34)cc2)CC1	< 100 nM
O=C(c1ccc(NS(=O)(=O)c2ccc(F)c3scnc23)cc1)N1CCC(O)(c2ccccc2Cl)CC1 [Compound 368]	101 to 1000 nM

// query AC50 value for entry `O=C(c1ccc(NS(=O)(=O)c2cccc3scnc23)cc1)N1CCC(O)(CCCC(F)F)CC1` < 100 nM

// query AC50 value for entry `O=C(c1ccc(NS(=O)(=O)c2cccc3scnc23)cc1)N1CCC(O)(c2ccccc2-c2ccccc2Cl)CC1` 101 to 1000 nM

// query AC50 value for entry `O=C(c1ccc(NS(=O)(=O)c2cccc(C(F)(F)F)c2)cc1)N1CCC(O)(Cc2ccccc2)CC1` 1010 to 10000 nM

// query AC50 value for entry O=C(c1ccc(NS(=O)(=O)c2cccc3cccnc23)cc1)N1CCC(O)(c2cnsc2)CC1 [Compound 353] < 100 nM

// query AC50 value for entry `O=C(c1ccc(NS(=O)(=O)c2cccc3nccnc23)cc1)N1CCC(O)(CCCC(F)(F)F)CC1` < 100 nM

// query AC50 value for entry `COc1ccccc1CC1(O)CCN(C(=O)c2ccc(NS(=O)(=O)c3cccc4cccnc34)cc2)CC1` < 100 nM

###

# system_under_test: PKR R532W (Homo sapiens, UniProt P30613, R532W)
# measurement_protocol: PKR Mutant Assay, AC50 against PKR R532W
# Assay type: biochemical
# condition: mutant PKR R532W enzyme
Catalogue of AC50 values

Some solved entries appear below for comparison.
O=C(c1ccc(NS(=O)(=O)c2cccc3nccnc23)cc1)N1CCC(O)(CC2CC2)CC1	< 100 nM
O=C(c1ccc(NS(=O)(=O)c2cccc3cccnc23)cc1)N1CCC(O)(c2cccc(OC(F)(F)F)c2)CC1	101 to 1000 nM
CCc1ccccc1C1(O)CCN(C(=O)c2ccc(NS(=O)(=O)c3cccc4cccnc34)cc2)CC1	< 100 nM
Cc1cc(C(=O)N2CCC(O)(c3cccc(F)c3F)CC2)ccc1NS(=O)(=O)c1ccc(F)c2cccnc12	< 100 nM
O=C(c1ccc(NS(=O)(=O)c2cccc3scnc23)cc1)N1CCC(O)(CC2CC2)CC1	< 100 nM

Here's the next entry for you.
// query AC50 value for entry `Cc1nc(C(=O)N2CCC(O)(c3ccccc3Cl)CC2)ccc1NS(=O)(=O)c1cccc2cccnc12` < 100 nM
